Let's look at some compounds and their measured IC50.
target: JAK2 (Homo sapiens, UniProt O60674); construct: host or cells: baculovirus expression system; assay: Recombinant Human JAK2 Kinase Assay (TRF); format: biochemical; details: JAK2 kinase inhibition, 0.2 μM ATP; read-out: JAK2 Potency
Sequence (O60674 whole entry): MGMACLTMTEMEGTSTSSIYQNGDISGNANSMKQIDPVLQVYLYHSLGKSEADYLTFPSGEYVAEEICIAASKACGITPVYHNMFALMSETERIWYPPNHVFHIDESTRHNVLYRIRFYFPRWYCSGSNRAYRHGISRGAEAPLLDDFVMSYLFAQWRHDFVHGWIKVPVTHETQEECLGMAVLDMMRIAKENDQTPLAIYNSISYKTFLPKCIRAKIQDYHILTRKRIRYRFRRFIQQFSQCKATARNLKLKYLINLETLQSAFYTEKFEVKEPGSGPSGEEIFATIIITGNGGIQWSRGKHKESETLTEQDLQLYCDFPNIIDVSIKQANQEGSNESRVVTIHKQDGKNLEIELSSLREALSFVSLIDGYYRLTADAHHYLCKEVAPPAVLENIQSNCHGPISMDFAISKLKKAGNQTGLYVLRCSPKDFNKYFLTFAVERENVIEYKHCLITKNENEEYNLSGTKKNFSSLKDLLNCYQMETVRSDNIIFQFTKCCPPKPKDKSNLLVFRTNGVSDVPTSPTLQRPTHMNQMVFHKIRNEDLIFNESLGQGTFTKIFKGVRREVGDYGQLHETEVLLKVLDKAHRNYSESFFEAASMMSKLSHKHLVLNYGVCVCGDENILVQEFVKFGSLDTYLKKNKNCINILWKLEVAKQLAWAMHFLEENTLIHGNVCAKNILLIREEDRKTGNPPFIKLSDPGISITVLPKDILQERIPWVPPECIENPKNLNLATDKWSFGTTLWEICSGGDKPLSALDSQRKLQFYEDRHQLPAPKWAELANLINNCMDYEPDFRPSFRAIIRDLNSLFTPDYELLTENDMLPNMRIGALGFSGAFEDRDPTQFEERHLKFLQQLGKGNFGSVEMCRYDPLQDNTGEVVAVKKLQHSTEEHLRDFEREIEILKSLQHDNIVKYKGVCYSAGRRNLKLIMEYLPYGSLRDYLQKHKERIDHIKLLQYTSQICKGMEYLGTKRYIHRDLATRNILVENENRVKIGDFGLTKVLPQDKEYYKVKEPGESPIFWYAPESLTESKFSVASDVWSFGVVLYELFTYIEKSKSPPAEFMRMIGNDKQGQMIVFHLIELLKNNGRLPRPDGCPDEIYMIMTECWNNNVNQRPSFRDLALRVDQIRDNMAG
Measurement Type: IC50

Compound: CN(c1ccccc1-c1ccc2cnc(Nc3ccc4cn[nH]c4c3)nn12)S(C)(=O)=O [Example 1337]
Assay System: JAK2 (Homo sapiens, UniProt O60674)
Result: < 100 nM

Compound: COc1ccccc1-c1ccc2cnc(Nc3ccc(C4CCN(C)CC4)cc3)nn12 [Example 1132]
Assay System: JAK2 (Homo sapiens, UniProt O60674)
Result: < 100 nM

Compound: CCS(=O)(=O)c1cccc(-c2ccc3cnc(Nc4ccc5ncn(C)c5c4)nn23)c1 [Example 1312]
Assay System: JAK2 (Homo sapiens, UniProt O60674)
Result: < 100 nM

Compound: CN1CCN(CCn2cc(Nc3ncc4ccc(-c5cnn(C)c5)n4n3)cn2)CC1 [Example 1213]
Assay System: JAK2 (Homo sapiens, UniProt O60674)
Result: < 100 nM

Compound: COc1ccccc1-c1ccc2cnc(Nc3ccc(C4CCN(C)CC4)c(OC)c3)nn12 [Example 908]
Assay System: JAK2 (Homo sapiens, UniProt O60674)
Result: < 100 nM

Compound: COc1cc(N2CCC(N3CCN(C)CC3)CC2)ccc1Nc1ncc2ccc(-c3ccc(Cl)nc3)n2n1 [Example 533]
Assay System: JAK2 (Homo sapiens, UniProt O60674)
Result: < 100 nM

Compound: COc1cc(C2CCNCC2)ccc1Nc1ncc2ccc(-c3cccc(S(=O)(=O)NC(C)(C)C)c3)n2n1 [Example 691]
Assay System: JAK2 (Homo sapiens, UniProt O60674)
Result: 100 to 1000 nM

Compound: CN1CCN(c2cccc(Nc3ncc4ccc(-c5cnn(CCCO)c5)n4n3)c2)CC1 [Example 976]
Assay System: JAK2 (Homo sapiens, UniProt O60674)
Result: < 100 nM

Compound: COc1ccccc1-c1ccc2cnc(Nc3ccc4c(c3)OCC(=O)N4C)nn12 [Example 647]
Assay System: JAK2 (Homo sapiens, UniProt O60674)
Result: < 100 nM

Compound: COc1cc(C2CCN(CC(N)=O)CC2)ccc1Nc1ncc2ccc(-c3cccc(S(=O)(=O)NC4CC4)c3)n2n1 [Example 697]
Assay System: JAK2 (Homo sapiens, UniProt O60674)
Result: 100 to 1000 nM

Compound: Cn1ncc2cc(Nc3ncc4ccc(-c5cccc(S(=O)(=O)CC6CC6)c5)n4n3)ccc21 [Example 1322]
Assay System: JAK2 (Homo sapiens, UniProt O60674)
Result: < 100 nM

Compound: COc1cc(C2=CCN(CC(N)=O)CC2)ccc1Nc1ncc2ccc(-c3ccccc3OC)n2n1 [Example 1274]
Assay System: JAK2 (Homo sapiens, UniProt O60674)
Result: 100 to 1000 nM

Compound: CC(C)(C)NS(=O)(=O)c1cccc(-c2ccc3cnc(Nc4ccc(C5CCC(N6CCOCC6)CC5)cc4)nn23)c1 (stereo not shown) [Example 565]
Assay System: JAK2 (Homo sapiens, UniProt O60674)
Result: < 100 nM

Compound: CN(c1ccccc1-c1ccc2cnc(Nc3ccc4c(c3)CCN(CC(N)=O)C4)nn12)S(C)(=O)=O [Example 918]
Assay System: JAK2 (Homo sapiens, UniProt O60674)
Result: < 100 nM

Compound: Cn1cc(-c2ccc3cnc(N4CCC(Oc5cccc(N)c5)CC4)nn23)cn1 [Example 598]
Assay System: JAK2 (Homo sapiens, UniProt O60674)
Result: 100 to 1000 nM

Compound: COc1ccccc1-c1ccc2cnc(Nc3ccc4c(c3)N(C)CCO4)nn12 [Example 645]
Assay System: JAK2 (Homo sapiens, UniProt O60674)
Result: < 100 nM

====

target: ALK (Homo sapiens, UniProt Q9UM73); construct: host or cells: baculovirus expression system; assay: ALK Kinase Assay (ELISA/TRF, PLC-γ substrate); type: biochemical; details: ALK Kinase Inhibition; read-out: ALK Potency
Sequence (Q9UM73 19-1620): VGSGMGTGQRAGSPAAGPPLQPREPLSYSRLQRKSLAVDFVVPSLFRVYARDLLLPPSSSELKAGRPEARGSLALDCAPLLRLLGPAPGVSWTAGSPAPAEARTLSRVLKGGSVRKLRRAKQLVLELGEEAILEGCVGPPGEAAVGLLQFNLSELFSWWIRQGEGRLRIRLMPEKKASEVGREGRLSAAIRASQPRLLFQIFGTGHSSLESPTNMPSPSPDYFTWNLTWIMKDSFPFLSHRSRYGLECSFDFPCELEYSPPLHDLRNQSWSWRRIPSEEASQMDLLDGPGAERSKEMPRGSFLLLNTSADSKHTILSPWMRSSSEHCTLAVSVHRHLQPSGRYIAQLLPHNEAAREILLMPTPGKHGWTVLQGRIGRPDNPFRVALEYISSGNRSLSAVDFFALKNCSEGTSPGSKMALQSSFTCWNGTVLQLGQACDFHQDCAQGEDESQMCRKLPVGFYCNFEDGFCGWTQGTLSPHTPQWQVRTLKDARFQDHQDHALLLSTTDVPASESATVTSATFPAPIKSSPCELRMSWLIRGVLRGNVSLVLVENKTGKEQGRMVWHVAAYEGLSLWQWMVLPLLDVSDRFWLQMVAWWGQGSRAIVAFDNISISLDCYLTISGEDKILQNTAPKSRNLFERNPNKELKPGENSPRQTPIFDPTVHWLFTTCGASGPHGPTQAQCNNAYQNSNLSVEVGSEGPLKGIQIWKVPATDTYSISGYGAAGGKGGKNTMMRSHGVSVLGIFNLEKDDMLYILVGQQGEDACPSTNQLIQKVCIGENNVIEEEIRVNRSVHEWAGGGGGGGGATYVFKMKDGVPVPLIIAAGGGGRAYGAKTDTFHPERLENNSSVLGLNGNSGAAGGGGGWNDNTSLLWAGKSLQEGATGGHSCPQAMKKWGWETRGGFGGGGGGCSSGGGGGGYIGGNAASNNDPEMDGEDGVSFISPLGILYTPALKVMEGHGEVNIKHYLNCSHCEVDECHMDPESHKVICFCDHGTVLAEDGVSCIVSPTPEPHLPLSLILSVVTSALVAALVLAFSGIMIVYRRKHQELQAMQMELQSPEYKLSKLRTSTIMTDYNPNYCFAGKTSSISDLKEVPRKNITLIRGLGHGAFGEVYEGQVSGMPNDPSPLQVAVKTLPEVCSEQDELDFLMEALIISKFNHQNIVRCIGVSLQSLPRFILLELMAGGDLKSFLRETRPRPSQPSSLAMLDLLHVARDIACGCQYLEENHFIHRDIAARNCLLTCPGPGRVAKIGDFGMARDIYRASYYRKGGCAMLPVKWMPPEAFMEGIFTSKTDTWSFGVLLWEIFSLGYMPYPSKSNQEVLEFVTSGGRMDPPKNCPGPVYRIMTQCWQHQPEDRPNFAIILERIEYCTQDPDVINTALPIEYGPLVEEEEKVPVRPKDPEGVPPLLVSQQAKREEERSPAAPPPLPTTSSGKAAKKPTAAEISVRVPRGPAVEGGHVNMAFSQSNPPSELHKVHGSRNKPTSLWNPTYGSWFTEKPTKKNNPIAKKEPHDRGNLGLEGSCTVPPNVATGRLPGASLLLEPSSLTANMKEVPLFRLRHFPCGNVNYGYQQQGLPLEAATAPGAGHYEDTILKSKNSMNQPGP
Measurement Type: IC50

Compound: C=Cc1cc(-c2ccccc2OC)n2nc(Nc3ccc(N4CCN(C)CC4)cc3)ncc12 [Example 103]
Result: 100 to 1000 nM
//
Compound: Fc1cc(Nc2ncc3ccc(-c4cccc(Cl)c4)n3n2)ccc1N1CCOCC1 [Example 187]
Result: > 10000 nM
//
Compound: Cc1cc(N2CCN(C)CC2)ccc1Nc1ncc2ccc(-c3ccc(S(C)(=O)=O)cc3)n2n1 [Example 67]
Result: 100 to 1000 nM
//
Compound: COc1cc2c(cc1Nc1ncc3ccc(-c4ccccc4OC)n3n1)C(=O)CC1(CCN(C)CC1)O2 [Example 1491]
Result: < 100 nM
//
Compound: COc1cc(N2CCN(C3CCN(C)CC3)CC2)ccc1Nc1ncc2ccc(-c3ccccc3OC)n2n1 [Example 231]
Result: < 100 nM
//
Compound: COc1cccc(-c2ccc3cnc(Nc4ccc(N5CCOCC5)cc4)nn23)c1 [Example 422]
Result: > 10000 nM
//
Compound: O=C(c1ccc(Nc2ncc3ccc(-c4cccnc4)n3n2)cc1)N1CCOCC1 [Example 317]
Result: 1000 to 10000 nM
//
Compound: COc1c(Nc2ncc3ccc(-c4ccccc4N(C)S(C)(=O)=O)n3n2)ccc(N2CCN(C[C@H](C)O)CC2)c1F [Example 1478]
Result: < 100 nM
//
Compound: COc1ccc(-c2ccc3cnc(Nc4ccc(N5CCN(C)CC5)cc4)nn23)cn1 [Example 81]
Result: 100 to 1000 nM
//
Compound: CN1CCN(c2ccc(Nc3ncc4c(Br)cc(Br)n4n3)cc2)CC1 [Example 84]
Result: 1000 to 10000 nM
//
Compound: Clc1cc(N2CCOCC2)ccc1Nc1ncc2c(Cl)cc(-c3ccccc3)n2n1 [Example 80]
Result: > 10000 nM
//
Compound: Clc1cccc(-c2ccc3cnc(Nc4ccc5c(c4)OCO5)nn23)c1 [Example 150]
Result: > 10000 nM
//
Compound: CN1CCN(c2ccc(Nc3ncc4ccc(-c5ccccc5OCC(=O)O)n4n3)cc2F)CC1 [Example 1401]
Result: 100 to 1000 nM
//
Compound: COc1ccccc1-c1ccc2cnc(-c3nnn[nH]3)nn12 [Example 1502]
Result: > 10000 nM
//
Compound: COc1ccc(OC)c(-c2ccc3cnc(Nc4ccc(N5CCN(C)CC5)cc4)nn23)c1 [Example 425]
Result: 100 to 1000 nM
//
Compound: NC(=O)CN1CCC(c2ccc(Nc3ncc4ccc(-c5ncccn5)n4n3)cc2)CC1 [Example 1568]
Result: 1000 to 10000 nM
//
Compound: CN(c1ccccc1-c1ccc2cnc(Nc3ccc(C4CCN(CC(N)=O)CC4)cc3)nn12)S(C)(=O)=O [Example 1408]
Result: < 100 nM
//
Compound: COc1ccccc1-c1ccc2cnc(Nc3ccc4c(c3)CC(=O)N4)nn12 [Example 432]
Result: 100 to 1000 nM
//
Compound: COc1ccc(Cl)cc1-c1ccc2cnc(Nc3ccc(N4CCN(C[C@@H](C)O)CC4)cc3)nn12 [Example 207]
Result: < 100 nM
//
Compound: Oc1ccc(-c2ccc3cnc(Nc4ccc(N5CCOCC5)cc4)nn23)cn1 [Example 331]
Result: 1000 to 10000 nM
//
Compound: C[C@H](O)CN1CCN(c2cccc(Nc3ncc4ccc(-c5cccc(Cl)c5)n4n3)c2)CC1 [Example 212]
Result: < 100 nM
//
Compound: COc1ccccc1-c1ccc2cnc(Nc3ccc(N4CCC(N5CCN(C)CC5)CC4)cc3)nn12 [Example 310]
Result: < 100 nM
//
Compound: CC(=O)Nc1cc(Nc2ncc3ccc(-c4cnn(C)c4)n3n2)ccc1C(C)(C)C [Example 1380]
Result: 1000 to 10000 nM
//
Compound: COc1ccc(Cl)cc1-c1ccc2cnc(Nc3cccc(N4CCN(CC(C)(C)O)CC4)c3)nn12 [Example 219]
Result: < 100 nM
//
Compound: CS(=O)(=O)Nc1ccc(-c2ccc3cnc(Nc4cccc(N5CCOCC5)c4)nn23)cc1 [Example 182]
Result: 100 to 1000 nM
//
Compound: COc1cc(Nc2ncc3ccc(-c4cc(Cl)ccc4OC)n3n2)cc(OC)c1 [Example 157]
Result: 100 to 1000 nM
//
Compound: Clc1cccc(Nc2ncc3cc4ccccc4n3n2)c1 [Example 271]
Result: > 10000 nM
//
Compound: COc1ccc(-c2ccc3cnc(Nc4ccc(C(=O)N5CCN(C)CC5)cc4)nn23)cn1 [Example 1420]
Result: 1000 to 10000 nM
//
Compound: COc1ccccc1-c1ccc2cnc(Nc3ccc4[nH]ccc4c3)nn12 [Example 170]
Result: 1000 to 10000 nM
//
Compound: COc1ccc(Cl)cc1-c1ccc2cnc(Nc3cccc(C(=O)N4CCN(C)CC4)c3)nn12 [Example 339]
Result: 100 to 1000 nM
//
Compound: CC(C)(C)C(=O)Nc1ccccc1-c1ccc2cnc(Nc3ccc(N4CCOCC4)cc3)nn12 [Example 401]
Result: > 10000 nM
//
Compound: c1ccc(-c2ccc3cnc(NCCCN4CCOCC4)nn23)cc1 [Example 29]
Result: > 10000 nM
//
Compound: CCCS(=O)(=O)Nc1cccc(-c2ccc3cnc(Nc4ccc(N5CCN(C)CC5)cc4)nn23)c1 [Example 417]
Result: < 100 nM
